assay: small-molecule binders of probe aNOTCH2, primary screen, biochemical, small-molecule microarray, 635/667 nm fluorescence (AID 1121); details: higher = more signal;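 further: score merges feature fluorescence read at 667 nm with its signal to noise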
Classify by measured composite z-score: 1 (yes) if it is equal to or exceeds -0.02, 0 (no) if it is smaller.

Past entries and their recorded results:
molecule | assigned category
COCCOC(=O)N1C(=O)[C@@]2(c3cc(C#CCC(C(=O)OC)C(=O)OC)ccc31)[C@H](C(=O)N1CCN(c3ncccn3)CC1)[C@H]1C(=O)O[C@H](c3ccccc3)[C@H](c3ccccc3)N1[C@@H]2c1ccc(OCCO)cc1 | 0 (no)
CN1CCC(CCCO)=CC1c1ccc(CN2CCCC2)cc1 (stereo unspecified) | 1 (yes)
O=C1O[C@@H](c2ccccc2)[C@@H](c2ccccc2)N2[C@@H](c3ccccc3OCCO)[C@]3(C(=O)Nc4ccc(C#CC5(O)CCCCCC5)cc43)[C@@H](C(=O)Nc3nc4ccccc4s3)[C@H]12 | 0 (no)

Form field: composite z-score at least -0.02? Entry: `COc1ccc([Si](C)(C)[C@H]2[C@H](CCn3cc([C@H](O)c4ccccc4)nn3)O[C@@]3(C(=O)N(Cc4cccc(N5CCC5=O)c4)c4ccccc43)[C@@H]2C)cc1`
0 (no)

Form field: composite z-score at least -0.02? Entry: C[C@H]1NC(=O)[C@H](Cc2ccccc2)NC(=O)[C@@]23C(=O)N[C@@H](Cc4ccccc4)C2[C@H](C)[C@@]2(C)O[C@H]2C3/C=C/C/C=C\CNC1=O (stereo partly specified)
0 (no)

Form field: composite z-score at least -0.02? Entry: `COc1ccc(C#Cc2ccc3c(c2)[C@]2(C(=O)N3)[C@H](C(=O)NC[C@H](O)c3ccccc3)[C@H]3C(=O)O[C@H](c4ccccc4)[C@H](c4ccccc4)N3[C@@H]2c2ccccc2OCCO)cc1`
1 (yes)

====

assay: basal 3T3-L1 adipocyte mitochondrial potential changes, profiling panel, cell-based, JC-1 fluorescence, 3T3-L1 adipocytes, 24 h, 100 nL compound (AID 1168); conditions: JC-1 mitochondrial fluorescence, higher = more signal, called active from +8 up or from −8 down; further: test concentration not given here
measurement label: z-score
Output: the number by itself.

Form field: reported z-score of C=CCC(OC(C)=O)[C@@H]1[C@@H](N(Cc2ccc(-c3ccccc3)cc2)C(=O)Cc2ccc(F)cc2)c2cc(OCCCO)ccc2N1C(=O)c1ccc2ccccc2n1 (stereo partly drawn)
0.25

====

assay: FRG1 promoter luciferase signal modulators, primary screen, FRG1 inhibition for FSHD, cell-based, C2C12 myotubes, firefly/Renilla luciferase, luminescence (AID 1084); conditions: higher = more signal, called active from +8 up or from −8 down
Classify by measured z-score: YES if it is equal to or exceeds -1, NO if it is smaller.

Past entries and their recorded results:
compound | assigned category
COc1ccc(C(=O)Nc2cccc(CN3C(=O)[C@]4(O[C@H](CC(=O)N5CCC[C@H]5CO)[C@@H]([Si](C)(C)c5ccc(OC)cc5)[C@@H]4C)c4ccccc43)c2)cc1 | NO
COc1cccc(C(=O)O[C@H]2CC[C@]3(C)C4=C(CCC3C2(C)C)[C@]2(C)CC[C@H]([C@H](C)CCCC(C)C)[C@@]2(C)CC4)c1 (some centres not stated) | NO
O=c1cccc(C=Cc2ccccc2)o1 | YES

Form field: z-score at least -1? Entry: `COCCOC(=O)N1C(=O)[C@@]2(c3cc(C#CCNC(N)=O)ccc31)[C@H](c1ccc(O)cc1)N1[C@H](c3ccccc3)[C@H](c3ccccc3)OC(=O)[C@H]1[C@@H]2C(=O)Nc1nc2ccccc2s1`
YES

Form field: z-score at least -1? Entry: `CC(C)CNC(=O)[C@@]1(c2ccc([N+](=O)[O-])cc2)CC(=O)N(CC23CC4CC(CC(C4)C2)C3)[C@@H]1c1ccc(CO)cc1`
NO

Form field: z-score at least -1? Entry: C=CCC(OC(C)=O)[C@@H]1[C@@H](N(Cc2ccc(-c3ccccc3)cc2)C(=O)Cc2ccc(OC)cc2)c2cc(OCCCO)ccc2N1C(=O)c1ccc2ccccc2n1 (some centres not stated)
YES

Form field: z-score at least -1? Entry: CCOC(=O)[C@H]1C[C@H]2O[C@@]23C[C@H]1C(=O)N1CCCC1[C@@H]3O[Si](C)(C)C(C)(C)C (some centres not stated)
YES
